System Name: menin protein (Homo sapiens (Human), UniProt O00255)
Sequence (O00255 whole entry): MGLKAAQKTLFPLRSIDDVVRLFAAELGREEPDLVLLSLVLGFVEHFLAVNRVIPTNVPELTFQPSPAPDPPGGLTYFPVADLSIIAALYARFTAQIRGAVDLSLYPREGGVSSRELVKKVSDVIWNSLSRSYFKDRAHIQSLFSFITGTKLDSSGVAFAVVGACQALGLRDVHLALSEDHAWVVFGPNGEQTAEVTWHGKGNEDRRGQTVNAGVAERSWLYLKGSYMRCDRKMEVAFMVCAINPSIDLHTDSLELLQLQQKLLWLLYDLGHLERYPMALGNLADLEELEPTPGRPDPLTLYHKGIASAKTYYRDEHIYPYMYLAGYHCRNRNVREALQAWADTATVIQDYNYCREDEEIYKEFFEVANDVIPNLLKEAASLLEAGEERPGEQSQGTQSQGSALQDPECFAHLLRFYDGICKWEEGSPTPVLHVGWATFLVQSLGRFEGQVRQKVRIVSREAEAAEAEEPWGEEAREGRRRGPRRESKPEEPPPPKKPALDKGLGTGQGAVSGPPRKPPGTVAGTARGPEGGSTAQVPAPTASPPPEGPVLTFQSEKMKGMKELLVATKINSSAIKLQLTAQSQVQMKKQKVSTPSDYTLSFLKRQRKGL
Run Description: biochemical
Type: binding
Run Parameters: FP competitive binding; menin protein 4 nM, FAM-MM2 probe 2 nM; read-out: Menin Binding Affinity IC50
pIC50: −log10 of the molar value.
Answer no if pIC50 is under 5, and yes if it is 5 or more.

{"Molecule": "O=S(=O)(c1ccc(N2CC(CN3CCC(C4(C5CCCC5)NCCc5ccccc54)CC3)C2)cc1)C1CCCC1 (centres unmarked)", "Classification": "yes"}
{"Molecule": "CC(=O)OC[C@@H]1CCC[C@H]1C(C#N)(c1ccccc1)C1CCN(CC2CN(c3ccc(S(=O)(=O)C4CC4)cc3)C2)CC1 (mixture of isomers)", "Classification": "yes"}
{"Molecule": "CC(=O)O[C@@H]1CCC[C@H]1C1(C2CCN(CCCOc3ccc(C#N)cc3)CC2)CN(C)Cc2ccc(F)cc21 (mixture of isomers)", "Classification": "yes"}
{"Molecule": "Cn1cccc1S(=O)(=O)c1ccc(N2CC(CN3CCC(C4(C5CCCC5)NCCc5ccccc54)CC3)C2)cc1 (centres unmarked)", "Classification": "yes"}
{"Molecule": "O=S(=O)(c1ccncc1)c1ccc(N2CC(CN3CCC(C4(C5CCCC5)CN(CCN5CCOCC5)Cc5ccccc54)CC3)C2)cc1 (centres unmarked)", "Classification": "yes"}
{"Molecule": "COC(=O)N[C@@H]1CCC[C@H]1C(C#N)(c1ccccc1)C1CCN(CC2CN(c3ccc(S(=O)(=O)c4ccc(C(=O)O)cc4)cc3)C2)CC1 (mixture of isomers)", "Classification": "yes"}
{"Molecule": "CC(=O)O[C@@H]1CCC[C@H]1C(C#N)(c1ccccc1)C1CCN(CC2CN(c3ccc(S(=O)(=O)C4CC4)cc3)C2)CC1 (mixture of isomers)", "Classification": "yes"}
{"Molecule": "COC(=O)N[C@@H]1CCC[C@H]1C(C#N)(c1ccccc1)C1CCN(CC2CN(c3ccc(S(=O)(=O)C4CC4)cc3)C2)CC1 (mixture of isomers)", "Classification": "yes"}
{"Molecule": "CO[C@@H]1CCC[C@@H]1C(C#N)(c1ccccc1)C1CCN(CCCOc2ccc(C#N)cc2)CC1 (mixture of isomers)", "Classification": "yes"}
{"Molecule": "N#Cc1ccc(OCCCN2CCC(C3(C4CCc5ccccc54)NCCc4ccccc43)CC2)cc1 (centres unmarked)", "Classification": "yes"}
{"Molecule": "CC(=O)O[C@@H]1CCC[C@H]1C(C#N)(c1cccc(F)c1)C1CCN(CC2CN(c3ccc(C#N)cc3)C2)CC1 (mixture of isomers)", "Classification": "yes"}
{"Molecule": "N#Cc1ccc(OCCCN2CCC(C3(CC4CCCCC4)NCCc4ccccc43)CC2)cc1 (centres unmarked)", "Classification": "yes"}
{"Molecule": "CC(=O)O[C@@H]1CCC[C@H]1C1(C2CCN(CC3CN(c4ccc(S(=O)(=O)C5CC5)cc4)C3)CC2)CN(C)Cc2ccc(F)cc21 (mixture of isomers)", "Classification": "yes"}
{"Molecule": "CS(=O)(=O)CO[C@H]1CCC[C@@H]1C(C#N)(c1ccccc1)C1CCN(CC2CN(c3ccc(S(=O)(=O)c4ccncc4)cc3)C2)CC1 (mixture of isomers)", "Classification": "no"}
{"Molecule": "CCC(CC)CC1(C2CCN(CCCOc3ccc(C#N)cc3)CC2)NCCc2ccccc21 (centres unmarked)", "Classification": "yes"}
{"Molecule": "CN1Cc2ccccc2C(C2CCCC2)(C2CCN(CCCOc3ccc(S(C)(=O)=O)cc3)CC2)C1 (centres unmarked)", "Classification": "yes"}
{"Molecule": "N#Cc1ccc(NCCCN2CCC(C3(C4CCCC4)NCCc4ccccc43)CC2)cn1 (centres unmarked)", "Classification": "yes"}
{"Molecule": "N#Cc1ccc(OCCCN2CCC(C3(C4CCCC4)NCCc4ccccc43)C2)cc1 (centres unmarked)", "Classification": "no"}
{"Molecule": "CNC(=O)N[C@@H]1CCC[C@H]1C(C#N)(c1ccccc1)C1CCN(CCCOc2ccc(C#N)cc2)CC1 (mixture of isomers)", "Classification": "no"}
{"Molecule": "CS(=O)(=O)c1ccc(OCCCN2CCC(C3(C4CCCC4)NCCc4ccccc43)CC2)cc1 (centres unmarked)", "Classification": "yes"}
{"Molecule": "CNC(=O)O[C@H]1CCC[C@@H]1C(Cn1cccc1)(c1ccccc1)C1CCN(CC2CN(c3ccc(S(=O)(=O)c4ccccc4)cc3)C2)CC1 (mixture of isomers)", "Classification": "yes"}
{"Molecule": "O=S(=O)(c1ccc(N2CC(CN3CCC(C4(C5CCCC5)NCCc5ccccc54)CC3)C2)cc1)C1CC1 (centres unmarked)", "Classification": "yes"}
{"Molecule": "CO[C@H]1CCC[C@H]1C(C#N)(c1ccccc1)C1CCN(CCCOc2ccc(C#N)cc2)CC1 (mixture of isomers)", "Classification": "no"}
{"Molecule": "CN1Cc2ccccc2C(C2CCCC2)(C2CCN(CC3CN(c4ccc(S(=O)(=O)C5CC5)cc4)C3)CC2)C1 (centres unmarked)", "Classification": "yes"}
{"Molecule": "COC(=O)N[C@H]1CCC[C@@H]1C(C#N)(c1ccccc1)C1CCN(CC2CN(c3ccc(S(=O)(=O)c4ccc(F)cc4)cc3)C2)CC1 (mixture of isomers)", "Classification": "yes"}
{"Molecule": "CNC(=O)O[C@H]1CCC[C@@H]1C(CN1CCCC1)(c1ccccc1)C1CCN(CC2CN(c3ccc(S(=O)(=O)c4ccccc4)cc3)C2)CC1 (mixture of isomers)", "Classification": "yes"}
